The molecules below have reported log10 Ki for UniProt:P00742.
Sequence (P00742 235-488 limits assumed): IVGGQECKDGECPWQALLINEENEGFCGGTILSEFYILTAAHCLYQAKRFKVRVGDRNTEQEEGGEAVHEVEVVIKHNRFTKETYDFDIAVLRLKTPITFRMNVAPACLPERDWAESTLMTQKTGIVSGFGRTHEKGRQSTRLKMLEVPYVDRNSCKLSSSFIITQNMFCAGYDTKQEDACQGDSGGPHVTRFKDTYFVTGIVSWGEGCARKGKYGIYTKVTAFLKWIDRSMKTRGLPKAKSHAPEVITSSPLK
Sequence (P00742 41-179 partner limits assumed): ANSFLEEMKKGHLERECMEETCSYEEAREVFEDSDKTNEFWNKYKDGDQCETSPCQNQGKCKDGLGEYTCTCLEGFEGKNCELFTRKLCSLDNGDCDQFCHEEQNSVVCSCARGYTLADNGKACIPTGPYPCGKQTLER
# values: log10(Ki), units nM

Examples with their reported log10 Ki follow.
1. COC1CN(C(=O)c2cccc3c2nc(C(=O)NC2CCN(C(C)C)CC2)n3Cc2cc(-c3ccc(Cl)s3)on2)C1 [Example 80] :: 0.85
2. CCOC(=O)OC(C)OC(=O)c1ccc2nc(C(=O)NC3CCN(C(C)C)CC3)n(CC(=O)Nc3ccc(Cl)cn3)c2c1 (stereo not drawn) [Example 63] :: 2.84
3. CC(C)N1CCC(NC(=O)c2nc3ccc(C(=O)NCCO)cc3n2CC(=O)Nc2ccc(Cl)cn2)CC1 [Example 57] :: 2.77

Take each entry in turn and give its log10 Ki.
1. O=C(Nc1ccc(N2CCOC2=O)cc1)c1nc2ccccc2n1Cc1cc(-c2ccc(Cl)s2)on1 [Example 42]
2. CCOC(=O)OC(C)OC(=O)c1cccc2c1nc(C(=O)NC1CCN(C(C)C)CC1)n2Cc1cc(-c2ccc(Cl)s2)on1 (stereo not drawn) [Example 20]
3. CC(C)N1CCC(NC(=O)c2nc3c(C(=O)N4CC(O)C4)cccc3n2CC(=O)Nc2ccc(Cl)cn2)CC1 [Example 32]
4. CC(OC(=O)OC1CCCCC1)OC(=O)c1ccc2c(c1)nc(C(=O)NC1CCN(C(C)C)CC1)n2CC(=O)Nc1ccc(Cl)cn1 (stereo not drawn) [Example 60]
5. COC(=O)c1ccc2nc(C(=O)NC3CCN(C(C)C)CC3)n(CC(=O)Nc3ccc(Cl)cn3)c2c1 [Example 17b]

1. 2.66
2. 0.93
3. 1.02
4. 1.54
5. 2.57
